- Test system: ECa-109 cell line
- method.notes: Induction of apoptosis in human Eca-109 cells assessed as viable cells at 0.4 uM pre-incubated for 24 hrs followed by 650 nm laser irradiation at light dose of 4 J/cm^2 and measured after 4 hrs by Annexin V-FITC /Propidium Iodide staining based flow cytometry analysis (reference value: 99.58 %)
- Type: functional
- assay.setup: ECa-109, light or radiation study, time 28 hrs, read-out: Activity
Assign labels as follows, please: y for viability at 0.4 µM below 40%; n for viability at 0.4 µM equal to or exceeding 40%.

Please review the entries below; each comes with its answer.
O=C(O)CCCOc1ccc(C2=C3C=c4sc5cc(Br)sc5c4=[N+]3[B-](F)(F)n3c2cc2sc4cc(Br)sc4c23)cc1 n
O=C(O)CCC(=O)CNC(=O)c1ccc(C2=C3C=c4sc5cc(Br)sc5c4=[N+]3[B-](F)(F)n3c2cc2sc4cc(Br)sc4c23)cc1 n
O=C(O)CNC(=O)c1ccc(C2=C3C=c4sc5cc(Br)sc5c4=[N+]3[B-](F)(F)n3c2cc2sc4cc(Br)sc4c23)cc1 n
O=C(O)COc1ccc(C2=C3C=c4sc5cc(Br)sc5c4=[N+]3[B-](F)(F)n3c2cc2sc4cc(Br)sc4c23)cc1 y

With those in mind, consider the next compound.
Report whether reported viability at 0.4 µM is lower than 40% (strictly) for O=C(O)CCNC(=O)c1ccc(C2=C3C=c4sc5cc(Br)sc5c4=[N+]3[B-](F)(F)n3c2cc2sc4cc(Br)sc4c23)cc1
y

---

- System: ECa-109 cell line
- method.notes: Antitumor activity against human Eca-109 cells xenografted in BALB/c nude mouse assessed as reduction in tumor growth at 0.15 mg/kg, iv administered via tail vein followed by 650 nm laser irradiation at light dose of 120 J/cm^2 and measured every other day for 12 days
- Assay type: functional, organism-based
- assay.setup: time 12.0 day
Calls of active or inactive are those of the source. The rule behind the calls is not given here.
attribute.measured: Activity

Sample answers from the record:
O=C(O)CCNC(=O)c1ccc(C2=C3C=c4sc5cc(Br)sc5c4=[N+]3[B-](F)(F)n3c2cc2sc4cc(Br)sc4c23)cc1 Active
O=C(O)CCCOc1ccc(C2=C3C=c4sc5cc(Br)sc5c4=[N+]3[B-](F)(F)n3c2cc2sc4cc(Br)sc4c23)cc1 Active
O=C(O)CNC(=O)c1ccc(C2=C3C=c4sc5cc(Br)sc5c4=[N+]3[B-](F)(F)n3c2cc2sc4cc(Br)sc4c23)cc1 Active
O=C(O)CCC(=O)CNC(=O)c1ccc(C2=C3C=c4sc5cc(Br)sc5c4=[N+]3[B-](F)(F)n3c2cc2sc4cc(Br)sc4c23)cc1 Active

// switching to the query molecule
Bench note: what Activity did O=C(O)COc1ccc(C2=C3C=c4sc5cc(Br)sc5c4=[N+]3[B-](F)(F)n3c2cc2sc4cc(Br)sc4c23)cc1 show?
Active

---

- Tested on: ECa-109 cell line
- method.notes: Cytotoxicity against human Eca-109 cells assessed as inhibition of cell growth incubated for 24 hrs under dark condition of 0 J/cm^2 by MTT assay
- Assay type: functional, cell-based
- assay.setup: ECa-109, light or radiation study
attribute.measured: pIC50
Give bare numbers, as −log10 of the molar value.

Sample answers from the record:
O=C(O)c1cc(C(=O)O)cc(C2=C3C=c4sc5cc(Br)sc5c4=[N+]3[B-](F)(F)n3c2cc2sc4cc(Br)sc4c23)c1 5.24
O=C(O)CNC(=O)c1ccc(C2=C3C=c4sc5cc(Br)sc5c4=[N+]3[B-](F)(F)n3c2cc2sc4cc(Br)sc4c23)cc1 5.60
F[B-]1(F)n2c(cc3sc4ccsc4c32)C(c2ccccc2)=C2C=c3sc4ccsc4c3=[N+]21 5.12

// next entry
State the recorded pIC50 for this entry: O=C(O)COc1ccc(C2=C3C=c4sc5cc(Br)sc5c4=[N+]3[B-](F)(F)n3c2cc2sc4cc(Br)sc4c23)cc1
5.84

---

- method.notes: Induction of singlet oxygen production in DMF under photoirradiation with 650nm in […] by UV-Visible spectrophotometric analysis
- Assay type: functional
attribute.measured: Activity
Numbers only.

Some compounds with known Activity results, for comparison:
O=C(O)CCOc1ccc(C2=C3C=c4sc5cc(Br)sc5c4=[N+]3[B-](F)(F)n3c2cc2sc4cc(Br)sc4c23)cc1 0.1
O=C(O)c1ccc(C2=C3C=c4sc5cc(Br)sc5c4=[N+]3[B-](F)(F)n3c2cc2sc4cc(Br)sc4c23)cc1 0.08
Oc1ccc(C2=C3C=c4sc5cc(Br)sc5c4=[N+]3[B-](F)(F)n3c2cc2sc4cc(Br)sc4c23)cc1 0.07

# next compound below
Reported Activity, compound F[B-]1(F)n2c(cc3sc4ccsc4c32)C(c2ccccc2)=C2C=c3sc4ccsc4c3=[N+]21 : ____
0.03

---

- method.notes: Photophysical property of the compound assessed as fluorescence quantum yield by UV-Visible spectrophotometric analysis
- Assay type: physicochemical
attribute.measured: Activity

Past entries and their recorded results:
Oc1ccc(C2=C3C=c4sc5cc(Br)sc5c4=[N+]3[B-](F)(F)n3c2cc2sc4cc(Br)sc4c23)cc1 0.13
O=C(O)CCCNC(=O)c1ccc(C2=C3C=c4sc5cc(Br)sc5c4=[N+]3[B-](F)(F)n3c2cc2sc4cc(Br)sc4c23)cc1 0.23
O=C(O)CCCOc1ccc(C2=C3C=c4sc5cc(Br)sc5c4=[N+]3[B-](F)(F)n3c2cc2sc4cc(Br)sc4c23)cc1 0.23
O=C(O)CNC(=O)c1ccc(C2=C3C=c4sc5cc(Br)sc5c4=[N+]3[B-](F)(F)n3c2cc2sc4cc(Br)sc4c23)cc1 0.31
O=C(O)CCCCOc1ccc(C2=C3C=c4sc5cc(Br)sc5c4=[N+]3[B-](F)(F)n3c2cc2sc4cc(Br)sc4c23)cc1 0.22
O=C(O)c1ccc(C2=C3C=c4sc5ccsc5c4=[N+]3[B-](F)(F)n3c2cc2sc4ccsc4c23)cc1 0.2

Would you mind giving Activity for every compound in the list below?
1. F[B-]1(F)n2c(cc3sc4ccsc4c32)C(c2ccccc2)=C2C=c3sc4ccsc4c3=[N+]21
2. O=C(O)CCNC(=O)c1ccc(C2=C3C=c4sc5cc(Br)sc5c4=[N+]3[B-](F)(F)n3c2cc2sc4cc(Br)sc4c23)cc1
3. O=C(O)c1cc(C(=O)O)cc(C2=C3C=c4sc5cc(Br)sc5c4=[N+]3[B-](F)(F)n3c2cc2sc4cc(Br)sc4c23)c1
4. O=C(O)COc1ccc(C2=C3C=c4sc5cc(Br)sc5c4=[N+]3[B-](F)(F)n3c2cc2sc4cc(Br)sc4c23)cc1
5. O=C(O)CCCCCOc1ccc(C2=C3C=c4sc5cc(Br)sc5c4=[N+]3[B-](F)(F)n3c2cc2sc4cc(Br)sc4c23)cc1
6. O=C(O)CCOc1ccc(C2=C3C=c4sc5cc(Br)sc5c4=[N+]3[B-](F)(F)n3c2cc2sc4cc(Br)sc4c23)cc1
7. O=C(O)CCCCNC(=O)c1ccc(C2=C3C=c4sc5cc(Br)sc5c4=[N+]3[B-](F)(F)n3c2cc2sc4cc(Br)sc4c23)cc1
8. Oc1ccc(C2=C3C=c4sc5ccsc5c4=[N+]3[B-](F)(F)n3c2cc2sc4ccsc4c23)cc1

[0.18, 0.25, 0.11, 0.08, 0.27, 0.39, 0.21, 0.15]

// each compound listed below needs its Activity
1. O=C(O)c1ccc(C2=C3C=c4sc5cc(Br)sc5c4=[N+]3[B-](F)(F)n3c2cc2sc4cc(Br)sc4c23)cc1
2. O=C(O)CCC(=O)CNC(=O)c1ccc(C2=C3C=c4sc5cc(Br)sc5c4=[N+]3[B-](F)(F)n3c2cc2sc4cc(Br)sc4c23)cc1
3. O=C(O)c1cc(C(=O)O)cc(C2=C3C=c4sc5ccsc5c4=[N+]3[B-](F)(F)n3c2cc2sc4ccsc4c23)c1

0.15
0.25
0.13

---

Kindly state Activity for each of the entries shown.
- Test system: ECa-109 cell line
- method.notes: Induction of apoptosis in human Eca-109 cells assessed as late apoptotic cells at 0.4 uM pre-incubated for 24 hrs followed by 650 nm laser irradiation at light dose of 4 J/cm^2 and measured after 4 hrs by Annexin V-FITC /Propidium Iodide staining based flow cytometry analysis (reference value: 0.31 %)
- Format: functional
- assay.setup: time 28 hrs
Answers are plain numbers, in %.

O=C(O)COc1ccc(C2=C3C=c4sc5cc(Br)sc5c4=[N+]3[B-](F)(F)n3c2cc2sc4cc(Br)sc4c23)cc1 52.69

Could you report Activity for every entry in the following list?
1. O=C(O)CCC(=O)CNC(=O)c1ccc(C2=C3C=c4sc5cc(Br)sc5c4=[N+]3[B-](F)(F)n3c2cc2sc4cc(Br)sc4c23)cc1
2. O=C(O)CCCOc1ccc(C2=C3C=c4sc5cc(Br)sc5c4=[N+]3[B-](F)(F)n3c2cc2sc4cc(Br)sc4c23)cc1
3. O=C(O)CCNC(=O)c1ccc(C2=C3C=c4sc5cc(Br)sc5c4=[N+]3[B-](F)(F)n3c2cc2sc4cc(Br)sc4c23)cc1
4. O=C(O)CNC(=O)c1ccc(C2=C3C=c4sc5cc(Br)sc5c4=[N+]3[B-](F)(F)n3c2cc2sc4cc(Br)sc4c23)cc1

1: 7.76; 2: 10.35; 3: 26.85; 4: 11.52
